# assay comment: Pharmacokinetic studies in mice, intravenous administration
# Assay type: in vivo, Balb/c mice
# condition details: female, Balb/c, mouse, in vivo, iv, 75 mg/kg, plasma analyte = label; after i.v. 75 mg/kg Ala-d4T-MP; mean ± S.E.M; read-out: AUC (converted)
readout kind: AUC (µM·h)
// note: answer is a bare numeric in µM·h

Asked: Requested field: AUC. Item: Cc1cn([C@H]2C=C[C@@H](CO)O2)c(=O)[nH]c1=O [d4T, 2′, 3′-Didehydro-3′-deoxy thymidine, reference compound]
Given back: 30.3

###

# assay comment: Pharmacokinetic studies in mice, oral administration
# Type: in vivo, Balb/c mice
# condition details: mouse, in vivo, po; mice; orally administered d4T; read-out: tmax (converted)
readout kind: Tmax (min)
// note: answer is a bare numeric in min

Asked: Requested field: Tmax. Item: Cc1cn([C@H]2C=C[C@@H](CO)O2)c(=O)[nH]c1=O [d4T, 2′, 3′-Didehydro-3′-deoxy thymidine, reference compound]
Given back: 5

###

# assay comment: Pharmacokinetic studies in mice, intravenous administration
# Assay type: in vivo, Balb/c mice
# condition details: female, Balb/c, mouse, in vivo, iv, 100 mg/kg, plasma analyte = label; after i.v. 100 mg/kg compound 113; estimate from composite curve of pooled data
readout kind: Cmax (µM)
// note: answer is a bare numeric in µM

Asked: Requested field: Cmax. Item: Cc1cn([C@H]2C=C[C@@H](CO)O2)c(=O)[nH]c1=O [d4T, 2′, 3′-Didehydro-3′-deoxy thymidine, reference compound]
Given back: 15.7

###

# System: herpes simplex virus (HSV) Type I strain HF
# assay comment: HSV-1 plaque formation assay in VERO cells
# Assay type: cell-based
# condition details: Human alphaherpesvirus 1, HSV-1, Strain HF
readout kind: IC50

In the examples that follow, each entry is paired with its recorded IC50.
Cc1cn([C@H]2C=C[C@@H](CO)O2)c(=O)[nH]c1=O [d4T, 2′, 3′-Didehydro-3′-deoxy thymidine, reference compound] = > 100 µM
COC(=O)C(C)NP(=O)(OC[C@@H]1C=C[C@H](n2cc(C)c(=O)[nH]c2=O)O1)Oc1ccc(Br)cc1 (stereo partly drawn) [Compound 113] = > 100 µM

Consider the record given below.
Asked: Requested field: IC50. Item: COC(=O)C(C)NP(=O)(OCC1C=CC(n2cc(C)c(=O)[nH]c2=O)O1)Oc1ccc(Cl)cc1 (stereo not drawn) [Compound 609]
Given back: > 100 µM

###

# assay comment: Pharmacokinetic studies in mice, intravenous administration
# Assay type: in vivo, Balb/c mice
# condition details: female, Balb/c, mouse, in vivo, iv, 100 mg/kg, plasma analyte = label; after i.v. 100 mg/kg compound 113; mean ± S.E.M
readout kind: Cmax (µM)
// note: answer is a bare numeric in µM

Asked: Requested field: Cmax. Item: COC(=O)C(C)NP(=O)(OC[C@@H]1C=C[C@H](n2cc(C)c(=O)[nH]c2=O)O1)Oc1ccc(Br)cc1 (stereo partly shown)
Given back: 212

###

Hydrolysis Rate values, listed per item
# assay comment: Hydrolysis rate in alkali conditions
# Format: physicochemical
// note: answer is a bare numeric in min⁻¹

COC(=O)C(C)NP(=O)(OCC1C=CC(n2cc(C)c(=O)[nH]c2=O)O1)Oc1cc(Cl)ccc1Cl (stereo not shown) = 0.1840
COC(=O)C(C)NP(=O)(OCC1C=CC(n2cc(C)c(=O)[nH]c2=O)O1)Oc1cccc(Br)c1 (stereo not shown) = 0.0338
COC(=O)C(C)NP(=O)(OCC1C=CC(n2cc(C)c(=O)[nH]c2=O)O1)Oc1ccccc1Br (stereo not shown) = 0.0336
COC(=O)C(C)NP(=O)(OC[C@@H]1C=C[C@H](n2cc(C)c(=O)[nH]c2=O)O1)Oc1ccc(Br)cc1 (stereo partly shown) = 0.0210

Asked: Requested field: Hydrolysis Rate. Item: COC(=O)[C@H](C)NP(=O)(OCC1C=CC(n2cc(C)c(=O)[nH]c2=O)O1)Oc1ccc(C#N)cc1 (stereo partly shown)
Given back: 0.1199

Asked: Requested field: Hydrolysis Rate. Item: COC(=O)C(C)NP(=O)(OCC1C=CC(n2cc(C)c(=O)[nH]c2=O)O1)Oc1c(OC)cccc1OC (stereo not shown)
Given back: 0.0029

Asked: Requested field: Hydrolysis Rate. Item: COC(=O)C(C)NP(=O)(OCC1C=CC(n2cc(C)c(=O)[nH]c2=O)O1)Oc1ccccc1Cl (stereo not shown)
Given back: 0.0370
